All values here come from patent US4006225A.

- ASSAY_TEXT: peak serum levels in dogs
- Type: in vivo
- PROTOCOL_CONDITIONS: dog, 10 mg/kg I.M.
Counter-ions that a name gives are not always drawn.
ASSAY_METRIC: Peak serum levels in dogs

COCC1OC(OC2OCC3OC4(OCC(O)(C(C)OC)C5OCOC54)OC3C2OC)C(OC)C(O)C1OC1OC(C)C(OC)C(OC2CC3(C)OC4(CC(O)C(OC5CC(OC6CC(C)([N+]([O-])=Cc7ccccc7)C(OC)C(C)O6)C(OC(=O)c6c(C)c(Cl)c(O)c(Cl)c6OC)C(C)O5)C(C)O4)OC3C(C)O2)C1O (centres unmarked): 1 to 2 µg/mL
COCC1OC(OC2OCC3OC4(OCC(O)(C(C)OC)C5OCOC54)OC3C2OC)C(OC)C(O)C1OC1OC(C)C(OC)C(OC2CC3(C)OC4(CC(O)C(OC5CC(OC6CC(C)(NO)C(OC)C(C)O6)C(OC(=O)c6c(C)c(Cl)c(O)c(Cl)c6OC)C(C)O5)C(C)O4)OC3C(C)O2)C1O (centres unmarked) [Hydroxylaminoeverninomicin D sodium salt, hydroxylaminoeverninomicin D sodium salt]: 20 to 30 µg/mL
COCC1OC(OC2OCC3OC4(OCC(O)(C(C)OC)C5OCOC54)OC3C2OC)C(OC)C(O)C1OC1OC(C)C(OC)C(OC2CC3(C)OC4(CC(O)C(OC5CC(OC6CC(C)(NO)C(OC)C(C)O6)C(OC(=O)c6c(C)c(Cl)c(O)c(Cl)c6OC)C(C)O5)C(C)O4)OC3C(C)O2)C1O (centres unmarked) [Hydroxylaminoeverninomicin D N-methylglucamine salt]: 20 to 30 µg/mL
COCC1OC(OC2OCC3OC4(OCC(O)(C(C)OC)C5OCOC54)OC3C2OC)C(OC)C(O)C1OC1OC(C)C(OC)C(OC2CC3(C)OC4(CC(O)C(OC5CC(OC6CC(C)(N=O)C(OC)C(C)O6)C(OC(=O)c6c(C)c(Cl)c(O)c(Cl)c6OC)C(C)O5)C(C)O4)OC3C(C)O2)C1O (centres unmarked) [Nitrosoeverninomicin D, nitrosoeverninomicin D]: 6 µg/mL
COCC1OC(OC2OCC3OC4(OCC(O)(C(C)OC)C5OCOC54)OC3C2OC)C(OC)C(O)C1OC1OC(C)C(OC)C(OC2CC3(C)OC4(CC(O)C(OC5CC(OC6CC(C)([N+](=O)[O-])C(OC)C(C)O6)C(OC(=O)c6c(C)c(Cl)c(O)c(Cl)c6OC)C(C)O5)C(C)O4)OC3C(C)O2)C1O (centres unmarked) [Everninomicin D, everninomicin D, reference compound]: 2 to 3 µg/mL

* * *

- Test system: Staphylococcus and Streptococcus
- ASSAY_TEXT: in vitro susceptibility of gram-positive microorganisms, standard tube dilution (MIC)
- Assay type: cell-based
- PROTOCOL_CONDITIONS: 24 h, Staphylococcus and Streptococcus; 24 hours at 37° C, Penassay broth; read-out: MIC
ASSAY_METRIC: MIC

COCC1OC(OC2OCC3OC4(OCC(O)C5OCOC54)OC3C2OC)C(OC)C(O)C1OC1OC(C)C(OC)C(OC2CC3(C)OC4(CC(O)C(OC5CC(OC6CC(C)(NO)C(OC)C(C)O6)C(OC(=O)c6c(C)c(Cl)c(O)c(Cl)c6OC)C(C)O5)C(C)O4)OC3C(C)O2)C1O (stereo not shown) [Hydroxylaminoeverninomicin C, hydroxylaminoeverninomicin C]: 0.1 to 0.8 µg/mL
COCC1OC(OC2OCC3OC4(OCC(O)(C(C)OC)C5OCOC54)OC3C2OC)C(OC)C(O)C1OC1OC(C)C(OC)C(OC2OC(C)C3OC4(CC(O)C(OC5CC(OC6CC(C)(NO)C(OC)C(C)O6)C(OC(=O)c6c(C)c(Cl)c(O)c(Cl)c6OC)C(C)O5)C(C)O4)OC3(C)C2O)C1O (stereo not shown) [Hydroxylaminoeverninomicin B, hydroxylaminoeverninomicin B]: 0.1 to 1 µg/mL
COCC1OC(OC2OCC3OC4(OCC(O)(C(C)OC)C5OCOC54)OC3C2OC)C(OC)C(O)C1OC1OC(C)C(OC)C(OC2CC3(C)OC4(CC(O)C(OC5CC(OC6CC(C)(N=O)C(OC)C(C)O6)C(OC(=O)c6c(C)c(Cl)c(O)c(Cl)c6OC)C(C)O5)C(C)O4)OC3C(C)O2)C1O (stereo not shown) [Nitrosoeverninomicin D, nitrosoeverninomicin D]: 0.08 to 0.8 µg/mL
COCC1OC(OC2OCC3OC4(OCC(O)(C(C)OC)C5OCOC54)OC3C2OC)C(OC)C(O)C1OC1OC(C)C(OC)C(OC2CC3(C)OC4(CC(O)C(OC5CC(OC6CC(C)([N+](=O)[O-])C(OC)C(C)O6)C(OC(=O)c6c(C)c(Cl)c(O)c(Cl)c6OC)C(C)O5)C(C)O4)OC3C(C)O2)C1O (stereo not shown) [Everninomicin D, everninomicin D, reference compound]: 0.03 to 0.3 µg/mL
